Biological target: human recombinant adrenergic α2A receptor (Homo sapiens, UniProt P08913)
Construct: expressed in transfected cells; host or cells: insect Sf9 cells
Sequence (P08913 whole entry): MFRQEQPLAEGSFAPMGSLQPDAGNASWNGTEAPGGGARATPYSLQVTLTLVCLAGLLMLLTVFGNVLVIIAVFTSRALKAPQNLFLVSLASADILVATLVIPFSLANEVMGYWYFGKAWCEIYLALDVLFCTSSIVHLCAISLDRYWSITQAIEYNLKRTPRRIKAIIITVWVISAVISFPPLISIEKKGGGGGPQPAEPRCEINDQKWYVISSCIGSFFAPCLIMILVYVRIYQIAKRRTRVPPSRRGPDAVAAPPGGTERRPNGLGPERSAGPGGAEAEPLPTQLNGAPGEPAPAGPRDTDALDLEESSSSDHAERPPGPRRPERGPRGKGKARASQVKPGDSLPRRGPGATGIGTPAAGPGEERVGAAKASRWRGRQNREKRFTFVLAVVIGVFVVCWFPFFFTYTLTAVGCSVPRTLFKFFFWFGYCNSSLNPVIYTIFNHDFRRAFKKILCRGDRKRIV
Assay: Radioligand binding, adrenergic α2A receptor ([3H]MK-912)
Conditions: 0.1 μM compound; Sf9 cells; 1 nM [3H]MK-912; read-out: Percentage inhibition of ligand binding, Adrenergic α2A
reported.endpoint: inhibition at 0.1 µM (%)

Reference set (2 entries):
item.smiles	reported.endpoint	unit.abbrev	experimental.value
Cc1ccc2c(c1)c1c(n2-c2cccc(-c3cncc4ccccc34)c2)CCN(C)C1	inhibition at 0.1 µM	%	39
CNC(=O)c1ccc(-c2ccccc2-n2c3c(c4cc(C)ccc42)CN(C)CC3)cn1	inhibition at 0.1 µM	%	11

I. Cc1ccc2c(c1)c1c(n2-c2ccc(-c3ccc4c(ccn4C)c3)cn2)CCN(C)C1
II. Cc1cc(C)c2c(c1)c1c(n2-c2cccc(-c3ccncc3)c2)CCN(C)C1
III. Cc1ccc2c(c1)c1c(n2-c2ccccc2-c2cnn(C)c2)CCN(C)C1
Given 3 compounds, produce a descending ranking by inhibition at 0.1 µM. A ranking is expressed here by listing the labels in the requested order.
I, III, II
(I: 59%, III: 33%, II: 7%)

---

Molecular target: human recombinant adrenergic α1D receptor (Homo sapiens)
Construct: expressed in transfected cells; host or cells: HEK-293
Sequence (P25100 whole entry): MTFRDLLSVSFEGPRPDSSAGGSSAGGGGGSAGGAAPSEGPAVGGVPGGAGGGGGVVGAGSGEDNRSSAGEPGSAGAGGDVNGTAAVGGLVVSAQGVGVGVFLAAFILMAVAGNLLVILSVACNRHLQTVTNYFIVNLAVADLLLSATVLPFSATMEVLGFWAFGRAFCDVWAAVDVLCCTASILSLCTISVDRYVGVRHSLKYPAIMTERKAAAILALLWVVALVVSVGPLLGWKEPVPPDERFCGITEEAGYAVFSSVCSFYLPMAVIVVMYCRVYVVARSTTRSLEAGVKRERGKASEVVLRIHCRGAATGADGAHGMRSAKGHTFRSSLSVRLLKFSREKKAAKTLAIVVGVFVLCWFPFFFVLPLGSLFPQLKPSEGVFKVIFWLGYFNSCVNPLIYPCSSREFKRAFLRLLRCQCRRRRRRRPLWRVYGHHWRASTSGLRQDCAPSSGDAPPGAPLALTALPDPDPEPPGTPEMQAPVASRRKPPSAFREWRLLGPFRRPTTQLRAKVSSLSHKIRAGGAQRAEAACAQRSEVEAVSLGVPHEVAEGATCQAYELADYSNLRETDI
Experiment: Radioligand binding, adrenergic α1D receptor ([3H]Prazosin)
Conditions: 0.1 μM compound; HEK-293 cells; 0.6 nM [3H]Prazosin; read-out: Percentage inhibition of ligand binding, Adrenergic α1D
reported.endpoint: inhibition at 0.1 µM (%)

Example entries begin here.
item.smiles	inhibition at 0.1 µM / %
Cc1cc(C)c2c(c1)c1c(n2-c2ccc3ncccc3c2)CCN(C)C1	-5
Cc1ccc2c(c1)c1c(n2-c2cccc(-c3ccc(S(C)(=O)=O)cc3)c2)CCN(C)C1	3
Cc1ccc2c(c1)c1c(n2-c2ccc(-c3ccc(C)nc3)cn2)CCN(C)C1	69

A. Cc1ccc2c(c1)c1c(n2-c2ccc(-c3cnc(N(C)C)nc3)cn2)CCN(C)C1
B. Cc1ccc2c(c1)c1c(n2-c2ccc3c(c2)CCN(C=O)C3)CCN(C)C1
Please state the entry with greater inhibition at 0.1 µM among A and B . Lab log: write the label of the selected item as the result.
A

---

Biological target: rat adrenergic α1B receptor (Rattus norvegicus, UniProt P15823)
Construct: rat adrenergic α1B receptor obtained from Wistar Rat liver; from tissue; host or cells: Wistar rat liver
Sequence (P15823 1-515): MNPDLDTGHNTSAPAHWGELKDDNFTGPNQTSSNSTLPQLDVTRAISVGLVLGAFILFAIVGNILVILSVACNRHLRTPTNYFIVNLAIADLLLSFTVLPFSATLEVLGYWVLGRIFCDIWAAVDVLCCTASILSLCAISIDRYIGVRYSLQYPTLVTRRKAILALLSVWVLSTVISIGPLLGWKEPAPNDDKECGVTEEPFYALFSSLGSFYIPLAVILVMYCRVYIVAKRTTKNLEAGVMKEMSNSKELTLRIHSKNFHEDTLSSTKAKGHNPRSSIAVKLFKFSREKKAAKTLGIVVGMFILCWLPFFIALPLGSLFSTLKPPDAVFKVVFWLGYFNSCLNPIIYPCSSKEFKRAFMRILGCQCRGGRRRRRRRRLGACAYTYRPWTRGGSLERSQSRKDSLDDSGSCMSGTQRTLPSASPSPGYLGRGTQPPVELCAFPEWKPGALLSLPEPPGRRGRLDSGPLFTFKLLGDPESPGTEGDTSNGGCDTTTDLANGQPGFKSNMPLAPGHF
Assay: Radioligand binding, adrenergic α1B receptor ([3H]Prazosin)
Conditions: 0.1 μM compound, Wistar rat liver, read-out: Percentage inhibition of ligand binding, Adrenergic α1B
reported.endpoint: inhibition at 0.1 µM (%)

Example cases with answers are listed next.
compound	experimental.value
CC(=O)Nc1ccc(-c2ccccc2-n2c3c(c4cc(C)ccc42)CN(C)CC3)cn1 [Compound No. 83]	18
Cc1ccc2c(c1)c1c(n2-c2ccc(-c3cccnc3)cn2)CCN(C)C1 [Compound No. 133]	63
Cc1ccc2c(c1)c1c(n2-c2cscc2-c2sccc2C)CCN(C)C1 [Compound 39]	67
Cc1ccc2c(c1)c1c(n2-c2ccccc2-c2ccnn2C)CCN(C)C1 [Compound 32]	73
Cc1ccc2c(c1)c1c(n2-c2cscc2-c2ccc(S(C)(=O)=O)cc2)CCN(C)C1 [Compound No. 76]	68

a. Cc1ccc2c(c1)c1c(n2-c2ccc(-c3ccc(C)nc3)cn2)CCN(C)C1 [Compound No. 156]
b. Cc1ccc2c(c1)c1c(n2-c2cccc(-c3ccc(F)nc3)c2)CCN(C)C1 [Compound 44]
Select the item whose inhibition at 0.1 µM value is smaller, choosing between a and b . # reply format: chosen label
b
